All figures here come from PubChem BioAssay AID1463.

- protocol: Counterscreen qHTS for Inhibitors of Tau Fibril Formation, Fluorescence Polarization; also: nearly all actives have a fitted effect of over 55% in size; also: potency is read from the fitted curve at half-maximal effect; tags tell the direction and shape of the fitted curve or compound fluorescence and quenching
- condition.parameters: tau K18 P301L Alexa594 fluorescence, heparin fibrillization; series mostly up to 57.7 µM
Among all 280,000 compounds or so, about 2,600 (0.93%) were called active. Roughly 8% stayed inconclusive and do not appear here. Shown is part of a subset that was picked to be rich in actives.
measured.metric: Potency

- compound: "Cc1ccc(C(=O)Nc2ccc(C(=O)O)cc2)cc1S(=O)(=O)Nc1ccccc1"
  result.value: "inactive"
- compound: "O=S(=O)(c1ccc2nc(N3CCN(c4cccc(Cl)c4)CC3)ccc2c1)N1CCCCC1"
  result.value: "inactive"
- compound: "CC(CCCc1ccccc1)NC(=O)c1nn(-c2ccc(Cl)cc2)nc1CO (stereo not given)"
  result.value: "inactive"
- compound: "COc1ccc(NS(=O)(=O)c2cc(NC(=O)CC(=O)c3ccc([N+](=O)[O-])cc3)ccc2C)cc1"
  result.value: "7.94 µM [quencher] (active)"
- compound: "Cc1nn(CC(=O)NCCc2ccccc2)c(=O)c2c1sc1ccccc12"
  result.value: "inactive"

---

- protocol: Counterscreen qHTS for Inhibitors of Tau Fibril Formation, Fluorescence Polarization; also: nearly all actives have a fitted effect of over 55% in size
- condition.parameters: tau K18 P301L (four-repeat tau fragment) Alexa594 fluorescence, heparin fibrillization; series mostly up to 57.7 µM
Out of some 280,000 compounds screened, about 2,600 (0.93%) were called active. Not shown: some 8% with an inconclusive outcome. The call rests on the fitted dose curve; in most records, active means well fitted curve in the direction sought with a large enough effect; inconclusive means small, poorly fitted or top-dose-only effect; inactive means flat fitted curve, though single readings scatter. The full list was thinned out, with actives kept by preference.
Outcome codes: active, inactive

- molecule: "Cc1cc(C)cc(-n2ccnc2SCC(=O)Nc2nc3ccccc3s2)c1"
  label.value: "inactive"
- molecule: "CCOc1ccc2nc(Nc3nc4ccc(NC(C)=O)cc4s3)sc2c1"
  label.value: "active"
- molecule: "O=C(NC1CC1)c1ccc2c(c1)NC(=O)c1ccccc1S2"
  label.value: "inactive"
- molecule: "O=C(CC(c1cccs1)N1Cc2ccccc2C1=O)Nc1ccc(F)c(F)c1 (stereo not drawn)"
  label.value: "inactive"
- molecule: "COc1cccc2sc(Nc3nc(C)c(C(C)=O)s3)nc12"
  label.value: "inactive"
- molecule: "COc1ccc(NC(=O)Nc2cccc(-c3noc(C)n3)c2)cc1"
  label.value: "inactive"
- molecule: "CCC(=O)c1ccc(OCC(=O)Nc2ccc3nc(C)sc3c2)cc1"
  label.value: "inactive"
- molecule: "COc1ccc2nc(Nc3nc(-c4cc5ccccc5oc4=O)cs3)sc2c1"
  label.value: "inactive"
- molecule: "CCOC(=O)c1ccc(CSc2nnc3cc(C)c4ccccc4n23)cc1"
  label.value: "inactive"
- molecule: "CCOc1ccc2nc(NC(=O)CSc3nc4c(c(=O)n(C)c(=O)n4C)n3CC)sc2c1"
  label.value: "inactive"
- molecule: "COc1cc(OC)c(OC)cc1/C=C/c1nc2cc3ccccc3cc2c(=O)n1-c1ccc(F)c(Cl)c1"
  label.value: "inactive"
- molecule: "c1ccc(Nc2n[nH]nc2-c2ccccc2)cc1"
  label.value: "inactive"
- molecule: "COc1ccc2nc(NC(=O)[C@@H]3CCCN3C(=O)c3cccs3)sc2c1"
  label.value: "inactive"
- molecule: "CCOC(=O)C1CCCN(C(=O)c2ccc(-n3ccc4ccccc43)s2)C1 (stereo not drawn)"
  label.value: "inactive"
- molecule: "COc1ccc2nc(Nc3nc(-c4ccncc4)cs3)sc2c1"
  label.value: "active"
- molecule: "COc1ncnc2sc3c(c12)CCCC3"
  label.value: "inactive"
- molecule: "Cc1cccc(C(=O)Nc2ccc(-c3nc4ncccc4o3)cc2C)c1"
  label.value: "inactive"
- molecule: "CCN1CCN(CCCNC(=O)c2cnn(-c3ccc(C)cc3C)c2C2CCN(C(=O)OC(C)(C)C)CC2)CC1"
  label.value: "inactive"
- molecule: "Fc1cc(F)c2nc(Nc3nc4c(F)cccc4s3)sc2c1"
  label.value: "inactive"
- molecule: "CC1(C)CN=C(N2CCN(c3ncnc4sc5c(c34)CCCC5)CC2)S1"
  label.value: "inactive"
- molecule: "COc1ccc2nc(Nc3nc4cc5c(cc4s3)OCCO5)sc2c1"
  label.value: "active"
- molecule: "Cc1ccc(Nc2ccccc2N)cc1"
  label.value: "inactive"
- molecule: "CCOC(=O)c1c(C)[nH]c(CCC(=O)NCCCN2CCN(c3cc(C)ccc3C)CC2)c1C"
  label.value: "inactive"
